Measured Enzyme Activity Endpoint Assay: Fc values are reported for all entries that follow.
- measured.on: pooled human IgG (human IgG1, 2, 3 and 4)
parameter: Enzyme Activity Endpoint Assay: Fc

protein	parameter	assay.value
PRT-586 (protein) MANQEIRYSEETPKTITSVWTKGVTPPTDFIYNEDVLHAPYIANQGWYDITKTFNGKDDLLCGAATAGNMLHWWFDQNKEQIERYLKKHPEKQKINFNGEQMFDVKEAIDTKDSQTDSKLFEYFKDKAFPYLSTKHLGVFPDHVIDMFINGYRLSLTNHGPTPVKRGTKDPRGGIFDAVFTRGDQSKLLTSRHDFKEKTLNEISDLIKQELTEGKALGLSHTYANVRINHVINLWGADFNAEGNLEAIYVTDSDSNASIGMKKYYVGVNSAGKVAISAKEIEGDNIGAQVLGLFTLSTGQDIWEQTNLEHHHHHH	Enzyme Activity Endpoint Assay: Fc	322 ng/µL
PRT-587 (protein) MANQEIRYSEETPKTITSVWTKGVTPPTDFIYNEDVLHAPYIANQGWYDITKTFNGKDDLLCGAATAGNMLHWWFDQNKEQIERYLKKHPEKQKINFNGEQMFDVKEAIDTKDSQTDSKLFEYFKDKAFPYLSTKHLGVFPDHVIDMFINGYRLSLTNHGPTPVKRGTKDPRGGIFDAVFTRGDQSKLLTSRHDFKEKTLNEISDLIKQELTEGKALGLSHTYANVRINHVINLWGADFNSEGNLEAIYVTDSDSNASIGMKKYYVGVNSAGKVAISAKEIEGDNIGAQVLGLFTLSTGKDIWEQTNLEHHHHHH	Enzyme Activity Endpoint Assay: Fc	156 ng/µL

Entry source: patent US20250027068
